Assay Overview: basal S. cerevisiae growth modulation, no modifier, primary screen, OD600, strain BY4716, 24 h, basal condition (AID 1173)
Settings: OD600, 24 h, higher = more signal, called active from +8 up or from −8 down
Readout Name: z-score
Output spec: single numeric token, no unit.

The following compounds have reported results that may help.
Value of z-score reported for the compound `C[C@H]1Cc2c(COc3ccccc3)nc3c(c2CO1)CN(CCOc1ccccc1)CC3` is -3.09

Value of z-score reported for the compound O=C1CCCC(C2=CCCCC2=O)C1 (stereo not drawn) is 0.0749

---
Value of z-score reported for the compound `CCCNC(=O)OC[C@H]1O[C@H](CCON=C(C)CCN2CCc3nc(CC)c(CC)cc3C2)C=C[C@@H]1Oc1ccc(OC)cc1` is -0.139

----------
System: Sonic hedgehog protein (Shh)
Assay Overview: small-molecule binders of Shh protein, primary screen, biochemical, small-molecule microarray, 635/667 nm fluorescence (AID 1151);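 further: Shh protein binding to compounds spotted on small-molecule microarray slides; score combines spot fluorescence intensity with signal-to-noise across triplicate slides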
Settings: small-molecule microarray binding, 635 nm fluorescence; higher = more signal
Readout Name: composite z-score
Output spec: single numeric token, no unit.

Value of composite z-score reported for the molecule `CCCCC#C[C@@H]1C=C[C@H](Oc2ccc(C(=O)OC)cc2)[C@@H](COC(=O)OCC)O1` is 1.12

Value of composite z-score reported for the molecule CCOC(=O)[C@H](CC(C)C)NC(=O)CCC1CC(OC(=O)NCc2ccc3c(c2)OCO3)CC2(CCCC(COC(=O)NCc3cccc(C(F)(F)F)c3)O2)O1 (some centres not stated) is 0.387

Value of composite z-score reported for the molecule `CCOC(=O)NN=C1C[C@@H](O)[C@@H](O)[C@@H]2[C@@H]3C(=O)N(Cc4ccccc4)C(=O)[C@@H]3CC[C@H]12` is -0.171

Consider the additional molecule presented here.
Value of composite z-score reported for the molecule `CCOC(=O)NN=C1C[C@@H](O)[C@@H](O)[C@@H]2[C@@H]3C(=O)N(c4cccc(Oc5ccccc5)c4)C(=O)[C@@H]3CC[C@@H]12` is -0.438

----------
// values below are reported z-score
Assay Overview: CREB reporter modulators under forskolin, primary screen, cell-based, PC12, CRE-LacZ reporter, forskolin-stimulated (AID 1146);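 further: PC12 cells with 6xCRE LacZ reporter stimulated by forskolin 10 µM; beta-galactosidase reporter signal reflecting CREB driven transcription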
Settings: luminescence, 4.5 h, higher = more signal, called active from +8 up or from −8 down
Output spec: single numeric token, no unit.

The following compounds have reported results that may help.
Value of z-score reported for the compound `C#CCCCON=C1C[C@@H](O)[C@@H](O)[C@@H]2[C@@H]3C(=O)N(c4ccc(F)cc4F)C(=O)[C@@H]3CC[C@H]12` is 0.278

Value of z-score reported for the compound `C#CCCCON=C1C[C@@H](O)[C@@H](O)[C@@H]2[C@@H]3C(=O)N(c4cccc(Oc5ccccc5)c4)C(=O)[C@@H]3CC[C@H]12` is -0.236

Value of z-score reported for the compound `CO[C@@H]1COC(=O)CC=C[C@H](C)[C@H](OC)COC(=O)[C@H](C)NC(=O)CC=C[C@H]1C` is -0.463

Consider the additional compound presented here.
Value of z-score reported for the compound `CC(C)=CCCC(C)=CCON=C1C[C@@H](O)[C@@H](O)[C@@H]2[C@@H]3C(=O)N(C[C@@H]4CCCO4)C(=O)[C@@H]3CC[C@H]12` is 0.174
